experiment: NCI Yeast Anticancer Drug Screen. Data for the mec2-1 strain (AID 157); settings: S. cerevisiae mec2-1 strain, at 50.0 µM
Compounds without any hit were thinned out: in the full panel of roughly 79,000, 15% have a hit. Active and inactive are the calls of the source. Rule as the data show it: active = growth inhibition above about 70%; inactive = the rest.
# valid calls are TRUE for active, FALSE for inactive; nothing else

Worked examples, 10 compounds total:
{"columns": ["Compound", "Category"],
 "data": [
  ["COC(=O)c1ccc2c(c1)CC1(C2)Cc2ccccc2C1=O (stereo unspecified)", "TRUE"],
  ["Cc1c(Cl)ccc2c1NC(=O)C2(O)CC(=O)c1ccc(Cl)cc1 (stereo unspecified)", "TRUE"],
  ["CCOC(=O)C(=Cc1ccccc1)C(=O)OCC", "TRUE"],
  ["CCCC/C=C(\\CCCNCCCC)[Si](C)(C)C", "TRUE"],
  ["Cc1cc(N)c(C)c2c1[nH]c1ccc(Br)cc12", "FALSE"],
  ["CCCCN(CCCC)CC(O)c1ccc(CCc2ccccc2)cc1 (stereo unspecified)", "TRUE"],
  ["CN(C)c1ccc(/C=C(/NC(=O)c2ccccc2)c2nc3ccc(Cl)cc3[nH]2)cc1", "FALSE"],
  ["Brc1ccc(-c2c3ccccc3cc3c2ccc2ccccc23)cc1", "FALSE"],
  ["CCCCCCCCCCCC[N+](C)(C)C (tested in a mixture with another compound)", "TRUE"],
  ["CCc1nc(N)nc(N)c1-c1ccc(NCCCCCCCCCCCCN)c([N+](=O)[O-])c1", "TRUE"]
]}

Now examine the next entry.
Call for entry Clc1ccc(-c2nnn3ccccc23)cc1 :
TRUE
